Test system: HL-60(TB) leukemia
MEASUREMENT PROTOCOL: NCI-60 one-dose screen, 48 h (100 = growth as untreated, 0 = no growth, -100 = all killed)
TEST CONDITIONS: 10 µM unless noted
This is part of a sample that, as a whole, favours compounds with a hit. Of some 83,000 tested, about 20% had one in any assay.
ENDPOINT LABEL: growth (%)
Quick note: give the figure in %, leave out the unit.

Query: Identify growth associated with the compound CC(=O)[O][Hg][c]1nc2c(c(=O)n(C)c(=O)n2C)n1C
Reply: 104

Query: Identify growth associated with the compound CCC(C#N)(CC)c1ccccc1
Reply: 102

Query: Identify growth associated with the compound O=c1c2cc(F)ccc2sc2c(N3CCNCC3)nc3ccccc3c12
Reply: -52

Query: Identify growth associated with the compound O=C(N/N=C/C=C/c1ccc([N+](=O)[O-])o1)c1cc2ccccc2cc1O
Reply: 3.51

Query: Identify growth associated with the compound COc1ccc(/C=C/c2nc(Nc3ccc(S(=O)(=O)Nc4nc(C)cc(C)n4)cc3)c3ccccc3n2)cc1
Reply: 73.6

Query: Identify growth associated with the compound CCCCNc1cc(C(=O)O)cc(S(N)(=O)=O)c1Oc1ccccc1
Reply: 107

###

Provide the recorded growth for the entries that follow.
Test system: HL-60(TB) leukemia
MEASUREMENT PROTOCOL: NCI-60 one-dose screen, 48 h (100 = growth as untreated, 0 = no growth, -100 = all killed)
TEST CONDITIONS: 10 µM unless noted
This is part of a sample that, as a whole, favours compounds with a hit. Of some 83,000 tested, about 20% had one in any assay.
Quick note: give the figure in %, leave out the unit.

Query: Identify growth associated with the compound COc1ccc(/C=C(/c2ccccc2)[N+](=O)[O-])cc1
Reply: -28.6

Query: Identify growth associated with the compound COc1ccc(-c2nnc(SCC(=O)c3ccccc3)o2)cc1
Reply: 80.5

Query: Identify growth associated with the compound CCOC(=O)c1nn(-c2ccc(S(N)(=O)=O)cc2)c2nc(C)cc(=O)n12
Reply: 101

Query: Identify growth associated with the compound CCOC(=O)c1noc2c1CCc1cn(Cc3cc(OC)cc(OC)c3)cc1-2
Reply: 77.1

Query: Identify growth associated with the compound Cc1ccc(-c2csc(NC(=O)CSc3nc(-c4ccccc4)cc(=O)[nH]3)n2)cc1
Reply: 49.4

###

Test system: UACC-62 melanoma
MEASUREMENT PROTOCOL: NCI-60 one-dose screen, 48 h
TEST CONDITIONS: 10 µM unless noted
Compounds without any hit were thinned out: in the full panel of roughly 83,000, 20% have a hit. Active and inactive are the calls of the source. The calls were made as follows: active = growth percent below 10; inactive = the rest.
Pick one and only one: active, inactive

Query: Each compound tested received a call. Report the one for CC[CH2][Pb]([CH2]CC)([CH2]CC)[O]C(=O)C(F)(F)F .
Reply: active

Query: Each compound tested received a call. Report the one for Cc1cc([N+](=O)[O-])c(Cl)cc1NS(=O)(=O)c1ccccc1 .
Reply: inactive

Query: Each compound tested received a call. Report the one for CC1(C)N=C(N)N=C(N)N1c1ccc(CCCCc2ccc(S(=O)(=O)F)cc2)cc1 .
Reply: inactive

Query: Each compound tested received a call. Report the one for CC(CC(C#N)(c1ccccc1)c1ccccc1)N1CCOCC1 (stereo unspecified) .
Reply: inactive

Query: Each compound tested received a call. Report the one for C[C@]12C[C@H](O)[C@H]3[C@@H](CCC4=CC(=O)CC[C@@]43C)[C@@H]1CC[C@@H]2O .
Reply: inactive

Query: Each compound tested received a call. Report the one for CN1CCN(C(=O)COc2ccc(/C=C3\CC4C5CC=C6CC(Cl)CCC6(C)C5CCC4(C)C3=O)cc2)CC1 (stereo unspecified) .
Reply: inactive

Query: Each compound tested received a call. Report the one for C=CCc1ccc(OC(=O)Cc2ccccc2)c(OC)c1 .
Reply: inactive

Query: Each compound tested received a call. Report the one for O=C1NC(=O)C(=Cc2cn(Cc3ccccc3)c3ccccc23)C(=O)N1 .
Reply: inactive

Query: Each compound tested received a call. Report the one for ClCCN(CCCl)c1ccc(C=NCCc2c[nH]c3ccccc23)cc1 .
Reply: inactive

Query: Each compound tested received a call. Report the one for N#CCN1C(=O)C(Cc2ccccc2)N=C(c2cccc(O)c2)c2ccc(Cl)cc21 (stereo unspecified) .
Reply: inactive

Query: Each compound tested received a call. Report the one for NC(=O)OCC(CO)(c1ccccc1)c1ccccc1 .
Reply: inactive

Query: Each compound tested received a call. Report the one for CC1(C)N=C(N)N=C(N)N1c1ccc(CCCCc2ccc(S(=O)(=O)F)cc2)c(Cl)c1 .
Reply: inactive

Query: Each compound tested received a call. Report the one for N#CC1c2ccccc2C=CN1C(=O)c1ccc(N(CCCl)CCCl)cc1 (stereo unspecified) .
Reply: inactive

Query: Each compound tested received a call. Report the one for Cc1ccc(C[As+](c2ccccc2)(c2ccccc2)c2ccccc2)cc1 .
Reply: active

Query: Each compound tested received a call. Report the one for CCOC(=O)/C=C(\C)Nc1ccc(N/C(C)=C/C(=O)OCC)c2c1Oc1ccccc1O2 .
Reply: inactive

Query: Each compound tested received a call. Report the one for CC(/C=N/N=C(N)N)=N\N=C(N)N .
Reply: inactive

Query: Each compound tested received a call. Report the one for N#[N+]c1cnc([O-])[nH]c1=O .
Reply: inactive

Query: Each compound tested received a call. Report the one for CC(C)[C@]12O[C@H]1[C@@H]1O[C@]13[C@]1(O[C@H]1C[C@H]1C4=C(CC[C@@]13C)C(=O)OC4)[C@@H]2OC(=O)OC(C)(C)C .
Reply: active

Query: Each compound tested received a call. Report the one for N#CC(C#N)=Cc1ccc2ccccc2c1 .
Reply: inactive

Query: Each compound tested received a call. Report the one for CC[C@@H](C)/C=C(C)/C=C/C(=O)c1c(O)c(-c2ccc(O)cc2)cn(O)c1=O .
Reply: active

Query: Each compound tested received a call. Report the one for C[As](=O)(O)c1ccc(C(=O)O)cc1 .
Reply: inactive
